# Test system: ATP;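 note: ATP exposure 15 min at 22 °C before imaging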
# protocol-details: switch fluorescence ratio, 500 uM ATP over buffer (Cy3 cluster intensity, sum of 5 cycles each) (fold (ratio)); higher = stronger signal-on switching upon ATP binding; sequences stand for … in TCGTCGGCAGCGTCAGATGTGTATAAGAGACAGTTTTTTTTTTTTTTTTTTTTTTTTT…TC
# particulars: aptamer strand: ATP DNA aptamer (quencher-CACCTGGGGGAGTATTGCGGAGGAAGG + anchor), 100 nM annealed; ATP concentration: 500 uM
readout-kind: switch fluorescence ratio
One number for each entry.

Use the examples below as a reference point.
primary-sequence	numeric-readout
GAATGGTTTT	0.971
CAGTGGGTGG	0.982
GGGTTTAGGG	1

Batch request: switch fluorescence ratio for each of the following sequences.
1. GATATGTGGG
2. GGTTTAAGAA
3. GACGTTAAAT

[0.986, 1.02, 1.01]

Batch request: switch fluorescence ratio for each of the following sequences.
1. TAGTCCAAAT
2. GGGATGGGAT
3. TTGTGGGGTA
4. TGGCAGAGGG

0.974
0.978
1
1

Batch request: switch fluorescence ratio for each of the following sequences.
1. GAGTTAATGT
2. GTGAGTGTTT
3. TTTGTTGCAG
4. AGGGTCTTAG
5. AGAGGAGGCA

1: 1.01; 2: 0.99; 3: 0.994; 4: 1.02; 5: 0.973

* * *

# System: ATP;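 note: ATP exposure 15 min at 22 °C before imaging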
# protocol-details: switch fluorescence ratio, 500 uM ATP over buffer (Cy3 cluster intensity, sum of 5 cycles each) (fold (ratio)); higher = stronger signal-on switching upon ATP binding; sequences stand for … in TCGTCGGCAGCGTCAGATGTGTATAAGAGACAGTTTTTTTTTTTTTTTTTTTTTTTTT…TC
# particulars: aptamer strand: ATP DNA aptamer (quencher-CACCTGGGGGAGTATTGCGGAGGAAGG + anchor), 100 nM annealed; ATP concentration: 500 uM
readout-kind: switch fluorescence ratio
Answers are plain numbers.

primary-sequence	system	switch fluorescence ratio
TTAGCCTAGT	ATP	0.965
TTTACGTCGG	ATP	1.02
TTACCTCTGC	ATP	1.39
GGGGACTGCA	ATP	1.03
GTTCTTGCGG	ATP	0.959

Batch request: switch fluorescence ratio for each of the following sequences.
1. ACAGGGGCAG
2. AGCTTTACGG
3. GTTTGGGCGG

1. 1.02
2. 1.04
3. 0.978

Batch request: switch fluorescence ratio for each of the following sequences.
1. ATGGTTGGGG
2. CGACGAATAG
3. GGGGGAGTTG
4. GTTCGCGGTG

1: 0.994; 2: 1.29; 3: 0.982; 4: 0.998

Batch request: switch fluorescence ratio for each of the following sequences.
1. AAGCTCGGTA
2. TGGGGAAAGC

0.987
0.983

* * *

# System: ATP;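 note: ATP exposure 15 min at 22 °C before imaging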
# protocol-details: switch fluorescence ratio, 500 uM ATP over buffer (Cy3 cluster intensity, sum of 5 cycles each) (fold (ratio)); higher = stronger signal-on switching upon ATP binding; sequences stand for … in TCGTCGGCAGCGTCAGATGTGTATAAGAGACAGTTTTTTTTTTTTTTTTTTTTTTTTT…TC
# particulars: aptamer strand: ATP DNA aptamer (quencher-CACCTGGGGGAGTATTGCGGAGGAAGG + anchor), 100 nM annealed; ATP concentration: 500 uM
readout-kind: switch fluorescence ratio
Answers are plain numbers.

Use the examples below as a reference point.
primary-sequence	readout-kind	numeric-readout
AGGGGGGTGG	switch fluorescence ratio	0.994
TTGGGCACGG	switch fluorescence ratio	0.991
AATCTGGCTG	switch fluorescence ratio	0.991
TTGGCGGGCG	switch fluorescence ratio	0.979

Batch request: switch fluorescence ratio for each of the following sequences.
1. CGAGTTACGG
2. TTGGGTTCTC
3. TGTGGTGGC

1. 1.01
2. 0.983
3. 0.995

Batch request: switch fluorescence ratio for each of the following sequences.
1. GGGATGGGGA
2. CAGCTTAGGG
3. TAGGGGATGC
4. AGGACAGGGT
5. GCAGTGGGTC
6. GCTGGTAGTT

1: 1.02; 2: 1.01; 3: 1; 4: 0.972; 5: 0.995; 6: 0.995

Batch request: switch fluorescence ratio for each of the following sequences.
1. TTGGTTGTTA
2. TAAATCACGG
3. AGAATTTTAG

[1.01, 1.02, 1.01]

* * *

# System: ATP;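 note: ATP exposure 15 min at 22 °C before imaging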
# protocol-details: switch fluorescence ratio, 500 uM ATP over buffer (Cy3 cluster intensity, sum of 5 cycles each) (fold (ratio)); higher = stronger signal-on switching upon ATP binding; sequences stand for … in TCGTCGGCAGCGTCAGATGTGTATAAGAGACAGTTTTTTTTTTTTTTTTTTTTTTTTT…TC
# particulars: aptamer strand: ATP DNA aptamer (quencher-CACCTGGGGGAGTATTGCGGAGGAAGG + anchor), 100 nM annealed; ATP concentration: 500 uM
readout-kind: switch fluorescence ratio

Use the examples below as a reference point.
primary-sequence	switch fluorescence ratio
ACTTGACGTG	1.01
TTGTATGGAC	1.02
GGTTACAATT	0.982
GCCGCTGGTG	1.22
CGGTTTGGAG	0.995

Batch request: switch fluorescence ratio for each of the following sequences.
1. TTTTATGCAA
2. TCTGTCGGGC

1.28
0.994

Batch request: switch fluorescence ratio for each of the following sequences.
1. TAATTCGTCG
2. AATCGGTAGG
3. ACAGGTTTTT

1. 0.997
2. 1.01
3. 1.01

Batch request: switch fluorescence ratio for each of the following sequences.
1. TCTTTAAAGT
2. TTCGGATAGT
3. GAGAATTGTA

1. 1.04
2. 0.98
3. 0.97

* * *

# System: ATP;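 note: ATP exposure 15 min at 22 °C before imaging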
# protocol-details: switch fluorescence ratio, 500 uM ATP over buffer (Cy3 cluster intensity, sum of 5 cycles each) (fold (ratio)); higher = stronger signal-on switching upon ATP binding; sequences stand for … in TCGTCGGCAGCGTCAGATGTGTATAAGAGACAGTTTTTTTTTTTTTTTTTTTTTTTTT…TC
# particulars: aptamer strand: ATP DNA aptamer (quencher-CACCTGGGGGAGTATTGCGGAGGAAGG + anchor), 100 nM annealed; ATP concentration: 500 uM
readout-kind: switch fluorescence ratio
Answers are plain numbers.

primary-sequence	switch fluorescence ratio
ATCACTGGGC	1.1
TTGGGAATCA	0.988
TAGGGTCGGG	0.947
TCTGAGTTTG	0.993
AATTGTAAAA	0.988
TTTAGGGTCA	0.962
AGTTGGGGGG	0.986
GAAATCACTC	1.15

Batch request: switch fluorescence ratio for each of the following sequences.
1. TTTTTTTACA
2. AACAAATGGG
3. GGTGTGACCA
4. CTTGCGGCCT
5. TATCTATGAG

1. 0.998
2. 1.02
3. 1.02
4. 1.11
5. 1.01

Batch request: switch fluorescence ratio for each of the following sequences.
1. GAGGTCCAGC
2. GATCCGAGGG

1. 1.14
2. 0.974

Batch request: switch fluorescence ratio for each of the following sequences.
1. ATCGAGCCGG
2. AGTAAGAGCA

1: 0.98; 2: 1.01

Batch request: switch fluorescence ratio for each of the following sequences.
1. TTCGATGGTG
2. ACCTTATCCT
3. CCAGTGGCGA

1: 0.987; 2: 1.16; 3: 1.16

* * *

# System: ATP;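 note: ATP exposure 15 min at 22 °C before imaging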
# protocol-details: switch fluorescence ratio, 500 uM ATP over buffer (Cy3 cluster intensity, sum of 5 cycles each) (fold (ratio)); higher = stronger signal-on switching upon ATP binding; sequences stand for … in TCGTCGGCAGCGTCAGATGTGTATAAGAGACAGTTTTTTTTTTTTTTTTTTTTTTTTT…TC
# particulars: aptamer strand: ATP DNA aptamer (quencher-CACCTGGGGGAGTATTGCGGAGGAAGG + anchor), 100 nM annealed; ATP concentration: 500 uM
readout-kind: switch fluorescence ratio
Numbers only.

Use the examples below as a reference point.
primary-sequence	switch fluorescence ratio
ACCACCAGAA	1.13
TGGGCAGGGC	1.04
TGTTTTTAAA	0.979
ATCGGGGTC	0.983
GGTTGGCGGG	1.07
ATAAGAAGAT	1.02
GGAGCAGCTG	0.973
GGTATATATG	0.995
GGGGGTAGGA	1.02
ACGGCTGCGG	0.987

Batch request: switch fluorescence ratio for each of the following sequences.
1. TTGAAAGTAT
2. CAATTCATTA
3. AGGGTGTCCA
4. TTTGTGGGCG
5. AGTAATGGGT
6. GGGTGTTTGT
7. TTAAGTATGT

1: 1.03; 2: 1.02; 3: 0.973; 4: 0.932; 5: 0.996; 6: 1; 7: 1.08

Given the sequence "ATGATTTTGT" , what is its reported switch fluorescence ratio?
1.01
